System: HCC-2998 colon
Assay: NCI tumour cell line growth inhibition, 48 h; in the data active means GI50 below about 0.43 µM; inactive means the rest
Where a SMILES comes first, the peptide text is derived from it. [ ]: non-standard residue; d: D form. The star is where a group is joined. NMeF = CN[C@@H](Cc1ccccc1)C(=O)O; NMeV = CN[C@H](C(=O)O)C(C)C; Boc = CC(C)(C)OC(=O)*; OBn = c1ccc(CO*)cc1
// classify into active, inactive

>>> group("COc1ccc(-c2nn(-c3cccc(NC(=O)c4cccc(C(F)(F)F)c4)c3)cc2-c2ccncc2)cc1Cl")
"inactive"
>>> group("COc1cccc(Cn2c(-c3nonc3NC(C)=O)nc3ccccc32)c1")
"inactive"
>>> group("COc1ccc2c(c1)/C(=C\\c1c(Cl)n(C)c3ccccc13)C(=O)N2")
"active"
>>> group("CC(=O)OC1Oc2cc(C)c(C)cc2-c2oc(=O)c(-c3ccc(F)cc3)cc21 (stereo not drawn)")
"inactive"
>>> group("COc1cc(C2CC(c3ccccc3)=NN2C(C)=O)cc(OC)c1OC (stereo not drawn)")
"inactive"
>>> group("CCOC(=O)c1c(Cl)c2c(n1Cc1cccc(OC)c1)-c1oncc1CC2")
"inactive"
>>> group("CC1(C)N=C(N)N=C(N)N1c1cccc(CCCCOc2ccccc2)c1")
"active"
>>> group("Nc1ccc(-c2nc3ccccc3o2)cc1S")
"inactive"

Incoming: What did this assay record as the result for CC(C)[C@@H](C(=O)N1CCC[C@H]1C(=O)OCc1ccccc1)N(C)C(=O)[C@H](C(C)C)N(C)C(=O)[C@H](Cc1ccccc1)N(C)C(=O)[C@H](NC(=O)OC(C)(C)C)C(C)C (Boc-[dV][NMeF][NMeV][NMeV]P-OBn) ?
Outgoing: inactive

Incoming: Test call for this molecule, please: Cc1ccc(-c2nc(N)c(C#N)c3c2CCOc2c-3ccc3ccccc23)cc1
Outgoing: active

Incoming: So what was the verdict on CCn1c(-c2nonc2N)nc2cncc(C(=O)NCCNC)c21 in this test?
Outgoing: inactive

Incoming: Test call for this molecule, please: CCCC1=C(C(=O)OCC)C(c2ccccc2OC)C(C#N)=C(N)O1 (stereo not drawn)
Outgoing: inactive

Incoming: Dear all, I need the recorded test outcome for O=C(NCCNc1nccc(-c2c(-c3cccc(O)c3)nc3sccn23)n1)Nc1cccc(C(F)(F)F)c1 , thank you.
Outgoing: inactive
